Exercise: for every item that follows, state its recorded T/C.
Test system: L1210 leukemia ip in BDF1 mice, survival T/C
assay.text: NCI In Vivo Anticancer Drug Screen. Data for tumor model L1210 Leukemia (intraperitoneal) in B6D2F1 (BDF1) mice
test.parameters: endpoint: mean survival time; dose: 50.0 mg/kg/injection; schedule: Q04DX003 (ip); vehicle: saline with Tween-80; higher = longer survival
Description: The antitumor activity of compounds was measured in mice bearing transplantable tumors. Survival or tumor size were measured and the results are expressed as the measurement made in the treated group (T) divided by the measurement made in the vehicle treated control group (C). The tumor model used in this assay is L1210 Leukemia (intraperitoneal) in B6D2F1 (BDF1) mice
Toxic doses and inconclusive results are not listed.

Input line: Any idea what T/C was measured for COc1cc(/C=N/[N+](C)(C)C)ccc1O ?
Output line: 97 % of control

Input line: Any idea what T/C was measured for CC(=O)Nc1ccc(SC(=O)N(C)C)cc1 ?
Output line: 104 % of control

Input line: Any idea what T/C was measured for CC(CN(C)C)CN1c2ccccc2Sc2ccccc21 (stereo not drawn) ?
Output line: 120 % of control

----------
System: L1210 leukemia ip in BDF1 mice, survival T/C
assay.text: NCI In Vivo Anticancer Drug Screen. Data for tumor model L1210 Leukemia (intraperitoneal) in B6D2F1 (BDF1) mice
test.parameters: endpoint: mean survival time; dose: 200.0 mg/kg/injection; schedule: Q04DX003 (ip); vehicle: Klucel (hydroxypropylcellulose) (HPC); higher = longer survival
Experimental: The antitumor activity of compounds was measured in mice bearing transplantable tumors. Survival or tumor size were measured and the results are expressed as the measurement made in the treated group (T) divided by the measurement made in the vehicle treated control group (C). The tumor model used in this assay is L1210 Leukemia (intraperitoneal) in B6D2F1 (BDF1) mice
Inconclusive results and toxic doses are left out. Square brackets hold non-standard residues; d marks the D form. Peptide text beside a SMILES is read from it. * marks the point of attachment. ξ: configuration not given here. Cbz = O=C(OCc1ccccc1)*; ξNva = CCCC(N)C(=O)O
Exercise: for every item that follows, state its recorded T/C.

Input line: Any idea what T/C was measured for CCCC(NC(=O)CNC(=O)CNC(=O)OCc1ccccc1)C(=O)O (stereo not drawn) (Cbz-Gly-Gly-[ξNva]-OH) ?
Output line: 106 % of control

Input line: Any idea what T/C was measured for COc1ccc2nc(N=Nc3c(N)nc(N)[nH]c3=O)sc2c1 ?
Output line: 101 % of control

Input line: Any idea what T/C was measured for COC(=O)c1ccc(Cn2cnc3ncnc(Cl)c32)cc1 ?
Output line: 91 % of control

Input line: Any idea what T/C was measured for CC(=O)Nc1ccc(Cl)c(Cl)c1 ?
Output line: 114 % of control

Input line: Any idea what T/C was measured for O=C1/C(=C/c2ccco2)CC/C1=C\c1ccco1 ?
Output line: 96 % of control

Input line: Any idea what T/C was measured for CCCCCCCCNC1=C(OC)C(=O)C(NCCCCCCCC)=C(OC)C1=O ?
Output line: 91 % of control

----------
System: L1210 leukemia ip in BDF1 mice, survival T/C
assay.text: NCI In Vivo Anticancer Drug Screen. Data for tumor model L1210 Leukemia (intraperitoneal) in B6D2F1 (BDF1) mice
test.parameters: endpoint: mean survival time; dose: 12.5 mg/kg/injection; schedule: Q01DX009 (ip); vehicle: saline with Tween-80
Inconclusive results and toxic doses are left out. Cut-off read from the data, not from the text of the source: active = T/C of 150% or more; inactive = T/C below 125%.
Please state which outcome applies, choosing from t for active, f for inactive

Input line: What is the recorded call for this molecule in the test? CC(=O)OCC1OC(S[As](C)SC2OC(COC(C)=O)C(OC(C)=O)C(OC(C)=O)C2OC(C)=O)C(OC(C)=O)C(OC(C)=O)C1OC(C)=O (centres undefined)
Output line: f

Input line: What is the recorded call for this molecule in the test? CC(O)(C(=O)O)c1ccc(Cl)c(Cl)c1 (centres undefined)
Output line: f

Input line: What is the recorded call for this molecule in the test? O=C(CBr)c1ccc(I)cc1
Output line: f

Input line: What is the recorded call for this molecule in the test? CCOc1ccc(Nc2c3ccccc3nc3ccccc23)cc1
Output line: f

Input line: What is the recorded call for this molecule in the test? CCCCCCCCC1N(C)CCCN1C
Output line: f

Input line: What is the recorded call for this molecule in the test? COc1cc(Cc2cnc(NC(C)=O)nc2NC(C)=O)cc(OC)c1OC
Output line: f

Input line: What is the recorded call for this molecule in the test? Nc1nc(N)c2c(Cl)c(CNc3ccc(Cl)c(Cl)c3)ccc2n1
Output line: t

Input line: What is the recorded call for this molecule in the test? O=C(C[n+]1ccccc1/C=N/O)c1ccccc1
Output line: f

Input line: What is the recorded call for this molecule in the test? CCc1ccccc1NC(=O)Sc1ccccc1O
Output line: f

Input line: What is the recorded call for this molecule in the test? CN(C)/N=C\c1ccccc1Cl
Output line: f

Input line: What is the recorded call for this molecule in the test? O=C(C=C(C(F)(F)F)C(F)(F)F)c1cc(Cl)ccc1Cl
Output line: f

Input line: What is the recorded call for this molecule in the test? CS(=O)(=O)C(Cl)(Cl)S(C)(=O)=O
Output line: f

Input line: What is the recorded call for this molecule in the test? N#CC(C#N)C1c2ccccc2Nc2ccccc21
Output line: f

Input line: What is the recorded call for this molecule in the test? Clc1cc(Cl)c(C[N+]23CN4CN(CN(C4)C2)C3)cc1Cl
Output line: f

The measurements presented in this section are drawn from PubChem BioAssay AID248.
